- test_target: UniProtKB P29274
- Sequence (P29274 whole entry): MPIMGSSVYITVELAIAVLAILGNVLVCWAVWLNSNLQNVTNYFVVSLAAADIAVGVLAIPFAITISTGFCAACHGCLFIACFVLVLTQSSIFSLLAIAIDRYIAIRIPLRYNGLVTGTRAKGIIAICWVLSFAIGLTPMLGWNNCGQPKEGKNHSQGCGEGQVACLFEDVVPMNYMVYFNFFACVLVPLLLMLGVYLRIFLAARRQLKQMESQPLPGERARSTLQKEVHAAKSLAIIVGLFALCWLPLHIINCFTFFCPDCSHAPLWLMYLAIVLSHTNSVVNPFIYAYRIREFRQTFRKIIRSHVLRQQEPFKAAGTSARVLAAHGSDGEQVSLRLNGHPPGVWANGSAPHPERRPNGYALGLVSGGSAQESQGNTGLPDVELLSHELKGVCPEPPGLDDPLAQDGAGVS
pKi: −log10 of the molar value.
quantity_measured: pKi

>>> print(df.to_string())
                           line_notation  result
0  Nc1nc(C(=O)NCc2ccccc2F)cc(-c2ccco2)n1  > 7.30

###

Recorded melting point, one value per entry.
quantity_measured: melting point

In [3]: df
Out[3]:
                                    molecule             result
 0  COCc1cccc(CNC(=O)c2nc(N)nc(-c3ccc(C)o3)c2Cl)n1  168.6 to 168.9 °C
 1  Nc1nc(C(=O)NCc2nc3ccccc3[nH]2)cc(-c2ccco2)n1  290.9 to 291.3 °C
 2  Cc1cc2cc(CNC(=O)c3cc(-c4ccco4)nc(N)n3)ccc2[nH]1  105.6 to 105.7 °C
 3  C[C@H](NC(=O)c1cc(-c2ccco2)nc(N)n1)c1ccccc1  158.7 to 158.9 °C
 4    CCCn1ccnc1CNC(=O)c1cc(-c2ccco2)nc(N)n1  270.7 to 271.5 °C
 5  Nc1nc(C(=O)NCc2nc3ccccc3s2)cc(-c2ccco2)n1  219.9 to 222.3 °C
 6  Nc1nc(C(=O)NC2CCc3ccccc32)cc(-c2ccco2)n1 (stereo in doubt) [Example 79]  111.8 to 112.5 °C
 7  CC(C)NC(=O)OCc1cccc(CNC(=O)c2cc(-c3ccco3)nc(N)n2)n1  155.2 to 155.7 °C
 8               NC(=O)c1cc(-c2ccco2)nc(N)n1    218 to 219.8 °C
 9  Nc1nc(C(=O)NC2CCc3ccccc32)cc(-c2ccco2)n1 (stereo in doubt) [Example 78]  126.7 to 127.2 °C
10  Cc1cc(CNC(=O)c2cc(-c3ccco3)nc(N)n2)ccc1[N+](=O)[O-]  191.8 to 192.2 °C
11  Nc1nc(C(=O)NCc2ccc3ccccc3n2)cc(-c2ccco2)n1  180.9 to 181.4 °C
12    Nc1nc(C(=O)NCCCc2ccccc2)cc(-c2ccco2)n1    131 to 131.1 °C
13  COCc1ccc(C)c(CNC(=O)c2cc(-c3ccco3)nc(N)n2)n1    148 to 148.4 °C
14  Nc1nc(C(=O)NCc2ncccc2CN2CCOCC2)cc(-c2ccco2)n1  195.5 to 197.5 °C
15  COc1cccc(CNC(=O)c2cc(-c3ccco3)nc(N)n2)c1  229.2 to 234.5 °C
16  COc1nc(C)ccc1CNC(=O)c1cc(-c2ccco2)nc(N)n1    178 to 178.1 °C
17  Nc1nc(C(=O)NCc2cccc3cccnc23)cc(-c2ccco2)n1  230.7 to 230.9 °C
18  Nc1nc(C(=O)NCc2ccc3[nH]ccc3c2)cc(-c2ccco2)n1  170.1 to 170.5 °C
19  C[C@@H](NC(=O)c1cc(-c2ccco2)nc(N)n1)c1ccccc1  158.8 to 159.1 °C
20  CCCNC(=O)OCc1cccc(CNC(=O)c2cc(-c3ccco3)nc(N)n2)n1  151.6 to 155.7 °C
21        Nc1nc(C(=O)N2CCCCC2)cc(-c2ccco2)n1    139.5 to 143 °C
22  Cc1ccc(CNC(=O)c2cc(-c3ccco3)nc(N)n2)c(N(C)C)n1    203 to 203.1 °C

###

quantity_measured: melting point

                               line_notation             result
 0  Nc1nc(C(=O)NCc2ccc3cc[nH]c3c2)cc(-c2ccco2)n1    193.8 to 194 °C
 1  Nc1nc(C(=O)NCc2cccc(C(F)(F)F)c2)cc(-c2ccco2)n1  170.6 to 170.7 °C
 2  CCCc1cccc(CNC(=O)c2cc(-c3nccs3)nc(N)n2)n1  144.1 to 144.3 °C
 3     CCn1ccnc1CNC(=O)c1cc(-c2ccco2)nc(N)n1  263.1 to 264.9 °C
 4  COCc1cccc(CNC(=O)c2nc(N)nc(-c3ccc(C)o3)c2Br)n1  193.5 to 195.1 °C
 5  Nc1nc(C(=O)N2CCCc3ccccc32)cc(-c2ccco2)n1  203.8 to 204.5 °C
 6   Nc1nc(C(=O)N2CCc3ccccc32)cc(-c2ccco2)n1  251.9 to 252.3 °C
 7  Cc1[nH]c2ccc(CNC(=O)c3cc(-c4ccco4)nc(N)n3)cc2c1C    155.9 to 156 °C
 8     Nc1nc(C(=O)NCCCn2ccnc2)cc(-c2ccco2)n1    248.2 to 249 °C
 9  Nc1nc(C(=O)NCc2cccc(Br)n2)cc(-c2ccco2)n1  178.1 to 179.3 °C
10    Nc1nc(C(=O)NCc2ncc[nH]2)cc(-c2ccco2)n1    > 200 °C (dec.)
11  Nc1nc(C(=O)N2CCc3ccccc3C2)cc(-c2ccco2)n1  193.3 to 193.6 °C
12   Cc1cnc(CNC(=O)c2cc(-c3ccco3)nc(N)n2)cn1    191.9 to 192 °C
13  Nc1nc(C(=O)NC2Cc3ccccc3C2)cc(-c2ccco2)n1    220 to 221.3 °C
14   Nc1nc(C(=O)N2Cc3ccccc3C2)cc(-c2ccco2)n1  226.2 to 226.3 °C
15  CN(C)c1ccc(CNC(=O)c2cc(-c3ccco3)nc(N)n2)cc1  202.4 to 202.9 °C
16      Cn1ccnc1CNC(=O)c1cc(-c2ccco2)nc(N)n1  209.5 to 210.3 °C
17  Nc1nc(C(=O)NCc2ccc3nsnc3c2)cc(-c2ccco2)n1  171.2 to 172.1 °C
18  Cc1ccc(COCC2CC2)nc1CNC(=O)c1cc(-c2ccco2)nc(N)n1  154.5 to 156.9 °C

These measurements were taken from patent US7875600B2.
